Target: hNMUR2 (Homo sapiens, UniProt Q9GZQ4)
Sequence (Q9GZQ4 whole entry): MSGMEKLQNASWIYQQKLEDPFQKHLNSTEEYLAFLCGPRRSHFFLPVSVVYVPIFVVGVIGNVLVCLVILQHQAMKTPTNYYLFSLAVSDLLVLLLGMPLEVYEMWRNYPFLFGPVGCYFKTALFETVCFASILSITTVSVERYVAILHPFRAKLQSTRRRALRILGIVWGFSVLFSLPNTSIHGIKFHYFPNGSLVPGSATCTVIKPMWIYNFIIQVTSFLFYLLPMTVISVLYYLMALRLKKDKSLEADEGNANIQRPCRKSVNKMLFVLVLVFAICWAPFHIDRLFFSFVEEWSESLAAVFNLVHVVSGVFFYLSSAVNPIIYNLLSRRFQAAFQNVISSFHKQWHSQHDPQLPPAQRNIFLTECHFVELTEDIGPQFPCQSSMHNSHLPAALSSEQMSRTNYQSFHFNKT
Assay Overview: In vitro functional assay, HEK-hR2 cells
Assay type: cell-based
Design: expressed in transfected cells; host or cells: FLP-In CHO or HEK-293 FLP-In cells (pcDNA5); HEK-293/aeq17 lines (pcDNA3.1) were also made
Experimental Conditions: Table 9, HEK-hR2, functional
No end group written: not given here.
Recorded EC50 by entry
Report the value in nM with no unit label.

WALFRARN-NH2 [Agonist M]; 33

Sure, the documented EC50 for H-FRVDEEFQSPFASQSRGYFLFRPRN-NH2 [hNMU-25, reference compound] is 1.5
